- experiment notes: BET inhibitor-based combinations targeting novel dependencies in MECOM-rearranged (r) AML: AML-194 cell line (AID 2202237; further: nearly all actives have a fitted effect of over 40% in size; further: potency means the concentration at half of the fitted maximal effect)
- applied conditions: AML-194 (MECOM-r AML) viability, CellTiter-Glo, 48 h; series mostly up to 46 µM
Records with an inconclusive call do not appear. Active and inactive are the calls of the source. The call rests on the fitted dose curve; in most records, active means well fitted inhibition curve with a large enough effect; inconclusive means small, poorly fitted or top-dose-only effect; inactive means flat fitted curve, though single readings scatter.
outcome measure: Potency

Guide cases for Potency, answers given:
compound	Potency
CC[C@@H](Oc1cccc(CN(CCCOc2ccc(OC)cc2)c2nc3ccccc3o2)c1)C(=O)O	inactive
FC(F)(F)c1ccc(CNc2ccc(Cc3c[nH]c4ncc(Cl)cc34)cn2)cn1	inactive
CCCCCCCCCCCCCC(=O)N[C@H](CO)[C@H](O)c1ccc([N+](=O)[O-])cc1	inactive
COC(=O)N[C@@H](C)CNc1nccc(-c2cn(C(C)C)nc2-c2cc(Cl)cc(NS(C)(=O)=O)c2F)n1	2.09 µM (active)
O=C(/C=C/c1ccc(CN(CCO)CCc2c[nH]c3ccccc23)cc1)NO	0.332 µM (active)
Cn1ncc(Cl)c1-c1cc(C(=O)N[C@H](CN)Cc2ccc(F)c(F)c2)sc1Cl	16.6 µM (active)
CCc1cc(/C(C)=N/OCc2ccc(C3CCCCC3)c(C(F)(F)F)c2)ccc1CN1CC(C(=O)O)C1	inactive
C[C@@H](O)[C@@H](C)Oc1nc(Nc2ccc(S(=N)(=O)C3CC3)cc2)ncc1C(F)(F)F (stereo partly specified)	16.6 µM (active)

Ask: Answer with the recorded Potency for the compound listed here: CCN(CC)CCNC(=O)c1c(C)[nH]c(/C=C2/C(=O)Nc3ccc(-c4csc(-c5ccccc5)n4)cc32)c1C
Reply: 7.42 µM (active)

Ask: Answer with the recorded Potency for the compound listed here: O=c1cc(N2CCOCC2)oc2c(-c3ccc4c(c3)OCCO4)csc12
Reply: 2.95 µM (active)

Ask: Answer with the recorded Potency for the compound listed here: Cn1cc(/C=C/C(=O)c2cccc(F)c2)cc1/C=C/C(=O)NO
Reply: 11.8 µM (active)

Ask: Answer with the recorded Potency for the compound listed here: CC(C)=CCC[C@](C)(O[C@@H]1O[C@H](CO[C@@H]2O[C@H](CO)[C@@H](O)[C@H](O)[C@H]2O)[C@@H](O)[C@H](O)[C@H]1O)[C@H]1CC[C@]2(C)[C@@H]1[C@H](O)C[C@@H]1[C@@]3(C)CC[C@H](O[C@@H]4O[C@H](CO)[C@@H](O)[C@H](O)[C@H]4O[C@@H]4O[C@H](CO)[C@@H](O)[C@H](O)[C@H]4O)C(C)(C)[C@@H]3CC[C@]12C
Reply: inactive

Ask: Answer with the recorded Potency for the compound listed here: C=CC(=O)Nc1cccc(C)c1Nc1ncc2cc(-c3c(Cl)c(OC)cc(OC)c3Cl)ccc2n1
Reply: 11.8 µM (active)

Ask: Answer with the recorded Potency for the compound listed here: CCCc1cc(C)[nH]c(=O)c1CNC(=O)c1cc(-c2ccc(N3CCN(C(C)C)CC3)nc2)cc2c1cnn2C(C)C
Reply: 14.8 µM (active)

Ask: Answer with the recorded Potency for the compound listed here: C[C@H]1[C@@H](OC(=O)CCC(=O)O)O[C@@H]2O[C@@]3(C)CC[C@@H]4[C@H](C)CC[C@@H]1[C@@]24OO3
Reply: 9.34 µM (active)

Ask: Answer with the recorded Potency for the compound listed here: CCC[C@H](Nc1nc(-c2ccc(NC(=O)NCC)c(OC)c2)ncc1C)c1cccnc1
Reply: 0.105 µM (active)
